MEASUREMENT PROTOCOL: Plasma concentrations and pharmacokinetics after intravenous bolus of C3G (NCA and two-compartment model)
Type: in vivo, Wistar rats
PARTICULARS: male, Wistar, rat, iv; plasma, i.v. 668 nmol C3G; read-out: AUC0–20 (converted)
Listed next: entries and their corresponding AUC0-t.
// units = nM·h; emit number, no label

Q: Can you look up the measured AUC0-t of COc1cc(-c2[o+]c3cc(O)cc(O)c3cc2O[C@@H]2O[C@H](CO)[C@@H](O)[C@H](O)[C@H]2O)cc(OC)c1O [M3G, Malvidin-3-O-β-glucoside] for me?
Result: 5.72

Q: Can you look up the measured AUC0-t of COc1cc(-c2[o+]c3cc(O)cc(O)c3cc2O[C@@H]2O[C@H](CO)[C@@H](O)[C@H](O)[C@H]2O)ccc1O [PN3G, Peonidin-3-O-β-glucoside] for me?
Result: 2.91

Q: Can you look up the measured AUC0-t of OC[C@H]1O[C@@H](Oc2cc3c(O)cc(O)cc3[o+]c2-c2ccc(O)c(O)c2)[C@H](O)[C@@H](O)[C@@H]1O [C3G, Cyanidin-3-O-β-glucoside] for me?
Result: 19.4

Q: Can you look up the measured AUC0-t of OC[C@H]1O[C@@H](Oc2cc3c(O)cc(O)cc3[o+]c2-c2ccc(O)cc2)[C@H](O)[C@@H](O)[C@@H]1O [PG3G, Pelargonidin-3-O-β-glucoside] for me?
Result: 0.673

Data credit: paper PMC4786809
